Catalogue of compounds with associated inhibition
Biological target: Genome polyprotein (dengue virus type 2) (UniProt P29990)
Experiment: Inhibition of Dengue virus serotype 2 NS2B-NS3 protease at 50 uM preincubated with protein for 15 mins followed by Abz-Nle-Lys-Arg-Arg-Ser-3-(NO2)Tyr substrate addition and measured by continuous fluorometric analysis relative to control

Recorded results for 3 compounds are shown here.
Look up inhibition: N=C(N)NCCCN(CC(=O)N[C@@H](CCCCN)C(=O)N[C@@H](C(N)=O)c1ccccc1)C(=O)c1ccccc1 32.7%

Look up inhibition: N=C(N)NCCC[C@H](NC(=O)c1ccccc1)C(=O)N[C@@H](CCCCN)C(=O)N(CC(N)=O)c1ccccc1 28.9%

Look up inhibition: CN(C(=O)c1ccccc1)[C@@H](CCCNC(=N)N)C(=O)N[C@@H](CCCCN)C(=O)N[C@@H](C(N)=O)c1ccccc1 93.6%

Okay, next one:
Look up inhibition: N=C(N)NCCC[C@H](NC(=O)c1ccccc1)C(=O)N(CCCCN)CC(=O)N[C@@H](C(N)=O)c1ccccc1 < 5%

---

Catalogue of compounds with associated inhibition
Biological target: Genome polyprotein (West Nile virus) (UniProt P06935)
Sequence (P06935 whole entry): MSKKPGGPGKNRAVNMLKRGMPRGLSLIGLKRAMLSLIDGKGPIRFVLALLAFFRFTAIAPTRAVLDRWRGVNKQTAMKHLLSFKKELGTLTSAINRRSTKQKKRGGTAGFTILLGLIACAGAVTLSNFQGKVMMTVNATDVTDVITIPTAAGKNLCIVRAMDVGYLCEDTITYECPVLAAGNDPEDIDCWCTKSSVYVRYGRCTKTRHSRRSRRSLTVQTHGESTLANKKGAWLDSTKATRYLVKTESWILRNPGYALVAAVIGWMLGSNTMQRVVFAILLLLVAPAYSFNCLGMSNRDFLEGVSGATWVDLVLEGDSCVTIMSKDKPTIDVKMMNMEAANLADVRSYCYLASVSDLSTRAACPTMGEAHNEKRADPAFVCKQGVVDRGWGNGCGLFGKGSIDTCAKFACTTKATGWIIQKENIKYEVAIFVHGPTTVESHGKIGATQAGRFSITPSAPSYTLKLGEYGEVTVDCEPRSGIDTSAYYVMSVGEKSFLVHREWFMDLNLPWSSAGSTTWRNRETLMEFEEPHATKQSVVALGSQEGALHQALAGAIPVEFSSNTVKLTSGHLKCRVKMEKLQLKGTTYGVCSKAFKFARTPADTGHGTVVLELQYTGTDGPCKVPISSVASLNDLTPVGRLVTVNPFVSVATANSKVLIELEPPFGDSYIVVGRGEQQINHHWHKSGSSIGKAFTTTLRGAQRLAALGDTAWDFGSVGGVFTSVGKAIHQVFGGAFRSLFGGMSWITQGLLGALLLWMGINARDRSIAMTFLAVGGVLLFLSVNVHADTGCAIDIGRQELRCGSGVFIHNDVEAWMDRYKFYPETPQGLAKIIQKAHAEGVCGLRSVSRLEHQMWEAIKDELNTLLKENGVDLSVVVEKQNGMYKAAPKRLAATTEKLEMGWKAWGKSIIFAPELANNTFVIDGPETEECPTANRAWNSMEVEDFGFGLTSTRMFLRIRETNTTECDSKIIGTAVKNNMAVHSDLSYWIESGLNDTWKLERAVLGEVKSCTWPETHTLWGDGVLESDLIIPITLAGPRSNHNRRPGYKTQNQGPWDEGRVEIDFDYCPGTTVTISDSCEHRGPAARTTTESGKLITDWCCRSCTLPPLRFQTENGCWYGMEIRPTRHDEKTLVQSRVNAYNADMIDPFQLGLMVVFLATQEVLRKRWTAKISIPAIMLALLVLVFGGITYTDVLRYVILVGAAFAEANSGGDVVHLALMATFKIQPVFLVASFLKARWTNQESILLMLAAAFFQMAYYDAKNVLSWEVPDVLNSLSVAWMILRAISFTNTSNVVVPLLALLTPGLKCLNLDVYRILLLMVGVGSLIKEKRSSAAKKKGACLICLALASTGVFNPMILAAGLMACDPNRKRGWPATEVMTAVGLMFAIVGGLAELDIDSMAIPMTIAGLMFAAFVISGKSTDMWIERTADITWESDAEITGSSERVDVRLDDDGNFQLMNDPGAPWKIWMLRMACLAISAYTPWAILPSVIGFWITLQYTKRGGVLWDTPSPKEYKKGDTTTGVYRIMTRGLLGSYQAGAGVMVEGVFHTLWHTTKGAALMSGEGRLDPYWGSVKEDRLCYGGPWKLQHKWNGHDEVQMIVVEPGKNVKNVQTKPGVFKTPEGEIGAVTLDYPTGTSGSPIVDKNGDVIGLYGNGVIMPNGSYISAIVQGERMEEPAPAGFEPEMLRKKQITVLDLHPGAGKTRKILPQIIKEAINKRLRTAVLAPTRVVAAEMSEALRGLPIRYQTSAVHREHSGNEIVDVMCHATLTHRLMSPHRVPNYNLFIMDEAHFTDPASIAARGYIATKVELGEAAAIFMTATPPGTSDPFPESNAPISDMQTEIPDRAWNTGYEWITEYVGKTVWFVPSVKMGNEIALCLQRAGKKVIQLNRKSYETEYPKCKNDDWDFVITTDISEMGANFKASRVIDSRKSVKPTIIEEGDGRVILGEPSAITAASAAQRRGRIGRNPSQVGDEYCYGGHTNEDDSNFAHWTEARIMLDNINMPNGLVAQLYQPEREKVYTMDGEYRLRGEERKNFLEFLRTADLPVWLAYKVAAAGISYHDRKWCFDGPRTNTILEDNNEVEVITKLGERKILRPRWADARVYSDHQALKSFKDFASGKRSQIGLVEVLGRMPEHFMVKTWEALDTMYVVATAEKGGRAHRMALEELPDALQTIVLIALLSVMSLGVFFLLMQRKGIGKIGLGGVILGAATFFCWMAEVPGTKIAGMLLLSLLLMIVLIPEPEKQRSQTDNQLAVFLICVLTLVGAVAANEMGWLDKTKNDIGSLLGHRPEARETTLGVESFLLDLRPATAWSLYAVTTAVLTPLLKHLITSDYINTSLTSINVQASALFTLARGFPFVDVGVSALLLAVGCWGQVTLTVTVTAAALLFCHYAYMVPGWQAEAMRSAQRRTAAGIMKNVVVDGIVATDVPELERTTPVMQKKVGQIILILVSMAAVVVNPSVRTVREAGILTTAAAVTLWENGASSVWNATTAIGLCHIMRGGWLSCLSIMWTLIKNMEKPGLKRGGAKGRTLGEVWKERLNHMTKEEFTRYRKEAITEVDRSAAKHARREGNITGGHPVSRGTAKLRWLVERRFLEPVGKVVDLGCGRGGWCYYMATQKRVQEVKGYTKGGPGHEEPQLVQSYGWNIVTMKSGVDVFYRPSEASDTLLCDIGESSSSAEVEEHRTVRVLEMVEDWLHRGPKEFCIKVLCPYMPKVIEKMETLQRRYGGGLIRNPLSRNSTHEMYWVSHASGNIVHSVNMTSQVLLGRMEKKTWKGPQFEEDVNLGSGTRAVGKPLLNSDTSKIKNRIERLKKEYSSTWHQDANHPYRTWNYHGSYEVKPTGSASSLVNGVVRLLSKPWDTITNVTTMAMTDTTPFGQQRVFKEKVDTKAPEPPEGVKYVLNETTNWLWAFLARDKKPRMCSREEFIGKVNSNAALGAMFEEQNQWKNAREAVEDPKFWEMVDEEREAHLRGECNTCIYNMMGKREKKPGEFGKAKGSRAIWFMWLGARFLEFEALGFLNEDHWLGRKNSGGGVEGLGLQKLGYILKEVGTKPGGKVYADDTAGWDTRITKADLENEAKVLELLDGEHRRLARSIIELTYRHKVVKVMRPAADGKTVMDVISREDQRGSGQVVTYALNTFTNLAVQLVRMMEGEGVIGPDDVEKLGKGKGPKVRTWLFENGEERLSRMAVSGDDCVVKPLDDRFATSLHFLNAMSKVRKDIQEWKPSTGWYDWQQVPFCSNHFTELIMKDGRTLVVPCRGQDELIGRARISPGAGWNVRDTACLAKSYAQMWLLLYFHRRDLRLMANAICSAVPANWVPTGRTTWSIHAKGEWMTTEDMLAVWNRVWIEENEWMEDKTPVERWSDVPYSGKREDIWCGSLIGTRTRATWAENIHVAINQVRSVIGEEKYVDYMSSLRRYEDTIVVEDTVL
Experiment: Inhibition of West Nile virus NS2B-NS3 protease preincubated with protein for 15 mins followed by Abz-Gly-Leu-Lys-Arg-Gly-Gly-3-(NO2)-Tyr substrate addition and measured by continuous fluorometric analysis relative to control
Set-up: concentration or dose not given beside the values
Where a SMILES comes first, the peptide text is derived from it. [ ]: non-standard residue; d: D form. The star is where a group is joined. dPhg = N[C@@H](C(=O)O)c1ccccc1; Bz = O=C(c1ccccc1)*
Give the value, in units of %, as a plain number.

Recorded results for 3 compounds are shown here.
Look up inhibition: N=C(N)NCCC[C@H](NC(=O)c1ccccc1)C(=O)N[C@@H](CCCCN)C(=O)N[C@@H](C(N)=O)c1ccccc1 (Bz-Arg-Lys-[dPhg]-NH2) 99

Look up inhibition: CN(C(=O)[C@H](CCCCN)NC(=O)[C@H](CCCNC(=N)N)NC(=O)c1ccccc1)[C@@H](C(N)=O)c1ccccc1 36.7

Look up inhibition: N=C(N)NCCC[C@H](NC(=O)c1ccccc1)C(=O)N[C@@H](CCCCN)CC(=O)N(CC(N)=O)c1ccccc1 17.7

Okay, next one:
Look up inhibition: CN(C(=O)c1ccccc1)[C@@H](CCCNC(=N)N)C(=O)N[C@@H](CCCCN)C(=O)N[C@@](C)(C(N)=O)c1ccccc1 50.8

---

Target: Prothrombin (Homo sapiens)
Assay: Inhibition of human thrombin at 25 uM preincubated with protein for 15 mins followed by boc-Val-Pro-Arg-AMC substrate addition and measured after 10 mins by continuous fluorometric analysis relative to control
Where a SMILES comes first, the peptide text is derived from it. [ ]: non-standard residue; d: D form. The star is where a group is joined. dPhg = N[C@@H](C(=O)O)c1ccccc1; Bz = O=C(c1ccccc1)*
test_readout: inhibition

Look up inhibition: N=C(N)NCCC[C@H](NC(=O)c1ccccc1)C(=O)N[C@@H](CCCCN)C(=O)N[C@@H](C(N)=O)c1ccc(OCc2ccccc2)cc1 7.8%

Look up inhibition: N=C(N)NCCC[C@H](NC(=O)c1ccccc1)C(=O)N[C@@H](CCCCN)CC(=O)N[C@@H](C(N)=O)c1ccccc1 < 5%

Look up inhibition: N=C(N)NCCC[C@H](NC(=O)c1ccccc1)C(=O)N[C@@H](CCCCN)C(=O)N[C@@H](C(N)=O)c1ccccc1 (Bz-Arg-Lys-[dPhg]-NH2) < 5%

Okay, next one:
Look up inhibition: CN(C(=O)c1ccccc1)[C@@H](CCCNC(=N)N)C(=O)N[C@@H](CCCCN)C(=O)N[C@@](C)(C(N)=O)c1ccccc1 < 5%

---

Experiment: Metabolic stability in Sprague-Dawley rat liver microsomes assessed as compound degradation by measuring half life incubated for 120 mins by HPLC and UV analysis
Format: ADME, Microsome
Details: Sprague-Dawley, liver microsomes
test_readout: half-life

Look up half-life: C[C@]12CC[C@H]3[C@@H](CCC4=CC(=O)CC[C@@]43C)[C@@H]1CC[C@@H]2O [TESTOSTERONE] 9 to 35 min

---

Test: Metabolic stability in Sprague-Dawley rat liver microsomes assessed as compound remaining after 120 mins by HPLC and UV analysis
Type: ADME, Microsome
Conditions: read-out: Stability
Where a SMILES comes first, the peptide text is derived from it. [ ]: non-standard residue; d: D form.
test_readout: remaining at 2 h (%)
Give the value, in units of %, as a plain number.

Look up remaining at 2 h: N=C(N)NCCC[C@@H](NC(=O)[C@@H](N)Cc1ccc(O)cc1)C(=O)N[C@@H](Cc1ccccc1)C(=O)N[C@@H](Cc1ccccc1)C(N)=O (H-Y[dR]FF-NH2) 85

---

Catalogue of molecules with associated inhibition
Target: Trypsin (Homo sapiens, UniProt P07477+P07478+P35030)
Assay: Inhibition of trypsin (unknown origin) at 50 uM preincubated with protein for 15 mins followed by boc-Val-Pro-Arg-AMC substrate addition and measured by continuous fluorometric analysis relative to control
Format: protein assay

Look up inhibition: N=C(N)NCCC[C@H](NC(=O)c1ccccc1)C(=O)N[C@@H](CCCCN)CC(=O)N(CC(N)=O)c1ccccc1 < 5%

Look up inhibition: CN(C(=O)[C@H](CCCNC(=N)N)NC(=O)c1ccccc1)[C@@H](CCCCN)C(=O)N[C@@H](C(N)=O)c1ccccc1 < 5%

---
Look up inhibition: N=C(N)NCCC[C@H](NC(=O)c1ccccc1)C(=O)N[C@@H](CCCCN)C(=O)N(CC(N)=O)c1ccccc1 < 5%

---

Target: Genome polyprotein (West Nile virus)
Sequence (P06935 1371-1501 limits assumed): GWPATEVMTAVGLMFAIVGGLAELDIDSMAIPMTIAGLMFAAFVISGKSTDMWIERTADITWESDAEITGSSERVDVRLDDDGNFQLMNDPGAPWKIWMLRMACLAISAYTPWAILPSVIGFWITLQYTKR
Sequence (P06935 1502-2120 limits assumed): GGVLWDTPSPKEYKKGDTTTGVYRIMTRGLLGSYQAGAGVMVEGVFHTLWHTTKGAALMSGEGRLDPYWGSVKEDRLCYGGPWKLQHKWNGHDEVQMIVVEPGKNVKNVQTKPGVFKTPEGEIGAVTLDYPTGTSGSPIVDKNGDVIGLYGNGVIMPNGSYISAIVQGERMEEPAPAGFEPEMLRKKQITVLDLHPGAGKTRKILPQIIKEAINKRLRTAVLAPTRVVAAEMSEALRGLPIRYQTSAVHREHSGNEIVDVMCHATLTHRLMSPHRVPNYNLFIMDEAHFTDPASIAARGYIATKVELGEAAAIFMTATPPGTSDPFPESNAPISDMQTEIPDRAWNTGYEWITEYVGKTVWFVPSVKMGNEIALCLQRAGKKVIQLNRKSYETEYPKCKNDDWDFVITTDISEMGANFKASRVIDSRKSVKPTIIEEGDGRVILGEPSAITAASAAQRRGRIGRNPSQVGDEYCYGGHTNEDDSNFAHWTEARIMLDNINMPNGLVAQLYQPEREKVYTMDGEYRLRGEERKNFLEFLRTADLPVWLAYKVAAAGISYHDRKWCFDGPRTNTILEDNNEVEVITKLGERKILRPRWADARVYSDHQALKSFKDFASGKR
Where a SMILES comes first, the peptide text is derived from it. [ ]: non-standard residue; d: D form. The star is where a group is joined. dPhg = N[C@@H](C(=O)O)c1ccccc1; Bz = O=C(c1ccccc1)*
Labelling field: enter TRUE if recorded IC50 is less than 7 µM. Enter FALSE if it equals or exceeds that cut-off.

Quick check: IC50 of CC(NC(=O)[C@H](CCCCN)NC(=O)[C@H](CCCNC(=N)N)NC(=O)c1ccccc1)(C(N)=O)c1ccccc1 (stereo not given in full) under 7 µM? FALSE

---
Quick check: IC50 of C[C@](NC(=O)[C@H](CCCCN)NC(=O)[C@H](CCCNC(=N)N)NC(=O)c1ccccc1)(C(N)=O)c1ccccc1 under 7 µM? FALSE

Quick check: IC50 of N=C(N)NCCC[C@H](NC(=O)c1ccccc1)C(=O)N[C@@H](CCCCN)C(=O)N[C@@H](C(N)=O)c1ccc(OCc2ccccc2)cc1 under 7 µM? TRUE

Quick check: IC50 of N=C(N)NCCC[C@H](NC(=O)c1ccccc1)C(=O)N[C@@H](CCCCN)C(=O)N[C@@H](C(N)=O)c1ccccc1 (Bz-Arg-Lys-[dPhg]-NH2) under 7 µM? TRUE

---

Catalogue of compounds with associated inhibition
Target: UniProt P29990
Assay: Inhibition of Dengue virus serotype 2 NS2B-NS3 protease at 50 uM preincubated with protein for 15 mins followed by Abz-Nle-Lys-Arg-Arg-Ser-3-(NO2)Tyr substrate addition and measured by continuous fluorometric analysis relative to control
Where a SMILES comes first, the peptide text is derived from it. [ ]: non-standard residue; d: D form. The star is where a group is joined. dPhg = N[C@@H](C(=O)O)c1ccccc1; Bz = O=C(c1ccccc1)*
Give the value, in units of %, as a plain number.

Recorded results for 3 compounds are shown here.
Look up inhibition: N=C(N)NCCC[C@H](NC(=O)c1ccccc1)C(=O)N[C@@H](CCCCN)C(=O)N[C@@H](C(N)=O)c1ccccc1 (Bz-Arg-Lys-[dPhg]-NH2) 99.3

Look up inhibition: C[C@@](NC(=O)[C@H](CCCCN)NC(=O)[C@H](CCCNC(=N)N)NC(=O)c1ccccc1)(C(N)=O)c1ccccc1 81.7

Look up inhibition: N=C(N)NCCC[C@H](NC(=O)c1ccccc1)C(=O)N[C@@H](CCCCN)C(=O)N[C@@H](CC(N)=O)c1ccccc1 17.6

Okay, next one:
Look up inhibition: N=C(N)NCCC[C@H](NC(=O)c1ccccc1)C(=O)N[C@@H](CCCCN)C(=O)N[C@@H](C(N)=O)c1ccc(OCc2ccccc2)cc1 100

---

Catalogue of compounds with associated inhibition
Target: Genome polyprotein (West Nile virus) (UniProt P06935)
Test: Inhibition of West Nile virus NS2B-NS3 protease preincubated with protein for 15 mins followed by Abz-Gly-Leu-Lys-Arg-Gly-Gly-3-(NO2)-Tyr substrate addition and measured by continuous fluorometric analysis relative to control
Set-up: concentration or dose not given beside the values

Recorded results for 3 compounds are shown here.
Look up inhibition: CCC(NC(=O)[C@H](CCCCN)NC(=O)[C@H](CCCNC(=N)N)NC(=O)c1ccccc1)(C(N)=O)c1ccccc1 (some centres undefined) 12.1%

Look up inhibition: N=C(N)NCCC[C@H](NC(=O)c1ccccc1)C(=O)N[C@@H](CCCCN)C(=O)N[C@@H](C(N)=O)c1ccc(OCc2ccccc2)cc1 101%

Look up inhibition: N=C(N)NCCC[C@H](NC(=O)c1ccccc1)C(=O)N[C@@H](CCCCN)CC(=O)N[C@@H](C(N)=O)c1ccccc1 14.6%

Okay, next one:
Look up inhibition: N=C(N)NCCCN(CC(=O)N[C@@H](CCCCN)C(=O)N[C@@H](C(N)=O)c1ccccc1)C(=O)c1ccccc1 12.4%
